Reported fractional inhibitory concentration index (FICI) values for the following compounds.
Test system: Staphylococcus aureus
experimentDescription: Synergistic antibacterial activity against hospital-associated methicillin-resistant Staphylococcus aureus COL assessed as fractional inhibitory concentration index in presence of sulfamethoxazole after 18 hrs by broth microdilution-based checkerboard titration assay
Format: functional

itemSmiles: COc1cc(Cc2cnc(N)nc2N)cc(OC)c1OC
testedOn: Staphylococcus aureus
endpointResult: 0.12
--
itemSmiles: COc1cc(Cc2cnc(N)nc2N)cc(Cl)c1OC
testedOn: Staphylococcus aureus
endpointResult: 0.12
--
itemSmiles: COc1cc(Cc2cnc(N)nc2N)cc(Br)c1OC
testedOn: Staphylococcus aureus
endpointResult: 0.12

Please look at the following compound next.
What the record says about COc1cc(Cc2cnc(N)nc2N)cc(I)c1OC : fractional inhibitory concentration index (FICI) is 0.12

----------
Tested on: Staphylococcus aureus
experimentDescription: Potentiation of sulfamethoxazole-mediated antibacterial activity against methicillin-resistant Staphylococcus aureus USA300 assessed as sulfamethoxazole MIC after 20 hrs by CLSI microdilution assay (reference value: 100 microg/ml)
Type: functional
testContext: USA300, 20 h
MIC overview
Report the value in µg/mL with no unit label.

Answered cases to consult:
compound: COc1cc(Cc2cnc(N)nc2N)cc(Cl)c1OC
MIC, µg/mL: 6.25

compound: COc1cc(Cc2cnc(N)nc2N)cc(Br)c1OC
MIC, µg/mL: 6.25

compound: COc1cc(Cc2cnc(N)nc2N)cc(OC)c1OC [TRIMETHOPRIM]
MIC, µg/mL: 6.25

# context switch: different compound, same MIC
# COc1cc(Cc2cnc(N)nc2N)cc(I)c1OC with Staphylococcus aureus: MIC is 6.25

----------
The entries below are paired with their reported MBC.
Tested on: Staphylococcus aureus
experimentDescription: Bactericidal activity against methicillin-resistant Staphylococcus aureus USA300 preincubated for 20 hrs followed by agar plating and measured after 18 to 20 hrs
Type: functional
Write the figure, then the unit, nothing else.

Study these solved cases before continuing.
itemSmiles: COc1ccc(Cc2cnc(N)nc2N)cc1OC
endpointResult: 10 µg/mL
//
itemSmiles: COc1cc(Cc2cnc(N)nc2N)cc(I)c1OC
endpointResult: 1.25 µg/mL
//
itemSmiles: COc1cc(Cc2cnc(N)nc2N)cc(Cl)c1OC
endpointResult: 2.5 µg/mL
//
itemSmiles: COc1cc(Cc2cnc(N)nc2N)cc(Br)c1OC
endpointResult: 1.25 µg/mL

Consider COc1cc(Cc2cnc(N)nc2N)cc(OC)c1OC . Its measured MBC is 2.5 µg/mL

----------
Listing of entries alongside the reported zone of inhibition at 5 µg/disc.
Tested on: Staphylococcus aureus
experimentDescription: Antibacterial activity against methicillin-susceptible Staphylococcus aureus ATCC 25923 at 5 ug after 18 to 20 hrs by CLSI disk diffusion assay
Assay type: functional
testContext: read-out: DIZ
Your reply should be a number followed by the unit it is expressed in.

Consider the reported zone of inhibition at 5 µg/disc for these compounds:
itemSmiles: COc1cc(Cc2cnc(N)nc2N)cc(OC)c1OC
testedOn: Staphylococcus aureus
endpointResult: 20.2 mm

itemSmiles: COc1cc(Cc2cnc(N)nc2N)cc(Br)c1OC
testedOn: Staphylococcus aureus
endpointResult: 17.4 mm

itemSmiles: COc1ccc(Cc2cnc(N)nc2N)cc1OC
testedOn: Staphylococcus aureus
endpointResult: 8.81 mm

itemSmiles: COc1cc(Cc2cnc(N)nc2N)cc(Cl)c1OC
testedOn: Staphylococcus aureus
endpointResult: 15.1 mm

Next compound, zone of inhibition at 5 µg/disc to be filled in.
Per the record, COc1cc(Cc2cnc(N)nc2N)cc(I)c1OC has zone of inhibition at 5 µg/disc of 21 mm

----------
We begin with a simple list: items and their reported MIC.
System: Staphylococcus aureus
experimentDescription: Potentiation of sulfamethoxazole-mediated antibacterial activity against methicillin-susceptible Staphylococcus aureus ATCC 29213 assessed as sulfamethoxazole MIC after 20 hrs by CLSI microdilution assay (reference value: 100 microg/ml)
Format: functional
testContext: ATCC 29213, 20 h
Please answer using a numeric value trailed by its unit.

Example entries and their recorded answers appear below.
itemSmiles: COc1cc(Cc2cnc(N)nc2N)cc(OC)c1OC
MIC: 6.25 µg/mL
--
itemSmiles: COc1cc(Cc2cnc(N)nc2N)cc(Cl)c1OC
MIC: 6.25 µg/mL
--
itemSmiles: COc1cc(Cc2cnc(N)nc2N)cc(I)c1OC
MIC: 3.13 µg/mL

Measured MIC, COc1cc(Cc2cnc(N)nc2N)cc(Br)c1OC : 6.25 µg/mL

----------
Tested on: Staphylococcus aureus
experimentDescription: Synergistic antibacterial activity against methicillin-susceptible Staphylococcus aureus ATCC 29213 assessed as fractional inhibitory concentration index in presence of sulfamethoxazole after 18 hrs by broth microdilution-based checkerboard titration assay
Type: functional
Recorded fractional inhibitory concentration index (FICI), one value per entry.
// return a plain number; no unit text

Some compounds with recorded fractional inhibitory concentration index (FICI):
compound: COc1cc(Cc2cnc(N)nc2N)cc(Cl)c1OC
endpointResult: 0.12

compound: COc1cc(Cc2cnc(N)nc2N)cc(OC)c1OC [TRIMETHOPRIM]
endpointResult: 0.12

Input COc1cc(Cc2cnc(N)nc2N)cc(I)c1OC . Output fractional inhibitory concentration index (FICI): 0.09

Documented fractional inhibitory concentration index (FICI) of COc1cc(Cc2cnc(N)nc2N)cc(Br)c1OC : 0.12

----------
Property: MIC; scope: individual molecules
Tested on: Staphylococcus aureus
experimentDescription: Antibacterial activity against hospital-associated methicillin-resistant Staphylococcus aureus COL after 20 hrs by CLSI microdilution assay
Format: functional
Number in µg/mL, nothing else.

Example results:
molecule: COc1cc(Cc2cnc(N)nc2N)cc(OC)c1OC [TRIMETHOPRIM]
outputUnit: µg/mL
MIC: 5
--
molecule: COc1cc(Cc2cnc(N)nc2N)cc(Br)c1OC
outputUnit: µg/mL
MIC: 5
--
molecule: COc1cc(Cc2cnc(N)nc2N)cc(Cl)c1OC
outputUnit: µg/mL
MIC: 5
--
molecule: COc1cc(Cc2cnc(N)nc2N)cc(I)c1OC
outputUnit: µg/mL
MIC: 2.5
--
molecule: COc1ccc(Cc2cnc(N)nc2N)cc1OC [DIAVERIDINE]
outputUnit: µg/mL
MIC: 10

API: the following record is the query input.
Data point: Cc1cc(NS(=O)(=O)c2ccc(N)cc2)no1 [SULFAMETHOXAZOLE] ; MIC = 200
